List of log10(solubility kinetic) values.
assay: Kinetic solubility in PBS pH 7.4 (Chem Partners); settings: PBS, pH 7.4, aqueous buffer, kinetic from dmso stock
Transform log10 | Measure solubility kinetic | Unit µM

Sample records with log10(solubility kinetic):
COMPOUND: Cc1[nH]c2c(c(=O)c1-c1ccc(Oc3cccc(OC(F)(F)F)c3)cc1)CCCC2
EXPERIMENTAL VALUE: -0.26
--
COMPOUND: Cc1[nH]c2c(c(=O)c1-c1ccc(Oc3cccc(F)c3)cc1)CCCC2
EXPERIMENTAL VALUE: -0.30
--
COMPOUND: Cc1[nH]c2c(c(=O)c1-c1ccc(Oc3ccc(OC(F)(F)F)cc3)cc1)CCC(C(F)(F)F)C2 (stereo not drawn)
EXPERIMENTAL VALUE: -1.70
--
COMPOUND: Cc1[nH]c2ccnn2c(=O)c1-c1ccc(Oc2ccc(OC(F)(F)F)cc2)cc1
EXPERIMENTAL VALUE: -0.03
--
COMPOUND: Cc1[nH]c2c(c(=O)c1-c1ccc(Oc3cc(Cl)cc(Cl)c3)cc1)CCCC2
EXPERIMENTAL VALUE: 0.80

# log10(solubility kinetic) lookup, item Cc1[nH]c2c(c(=O)c1-c1ccc(Oc3cccc(Cl)c3)cc1)CCCC2
-0.48

# log10(solubility kinetic) lookup, item Cc1[nH]c2cnccc2c(=O)c1-c1ccc(Oc2ccc(OC(F)(F)F)cc2)cc1
0.71

# log10(solubility kinetic) lookup, item Cc1[nH]c2c(c(=O)c1-c1ccc(Oc3cc(Cl)nc(Cl)c3)cc1)CCCC2
0.70

# log10(solubility kinetic) lookup, item Cc1[nH]c2c(c(=O)c1-c1ccc(Oc3ccc(F)c(Cl)c3)cc1)CCCC2
0.30
